I'd be grateful if you could share measured OD450 (参考630nm) for these entries.
- system: 肺炎支原体天然抗原(购自Microbix) (Mycoplasma pneumoniae)
- experiment.notes: indirect ELISA, antigen coated at 2 ug/ml, antibody 1.88 ng/ml
Please state the number and follow it with the unit.

Requested read-out: OD450 (参考630nm). Entry: Anti-MP-22A9mut5 (antibody, mouse IgG1, kappa, V domains shown) VH: QAYLQQSGAELVRSGASVKMSCKASGYTFTTYNMHWVKQTPGQGLEWIGYVHPGYGITYYSQKFKGKATLTADTSSSTAYMLLSSITSEDSAVYFCTRSYYGYSYWFFDVWGAGTTVTVSS VL: NIVMTQSPKSVSMSVGERVTLNCKASENVGSYVAWYQQKPDRSPKLLIHGASNRYTGVPDRFTGSGSTTDFTITISSVQAEDLADYHCGQTYNYPYTFGGGTKLEIKR
0.536 OD

Can you check Anti-MP-22A9mut2 (antibody, mouse IgG1, kappa, V domains shown) VH: QAYLQQSGAELVRSGASVKMSCKASGYTFTTYNMHWVKQTPGQGLEWIGYVHPGYGITYYSQKFKGKATLTADTSSSTAYMLLSSLTSEDSAVYFCTRSYYGYSYWFFDVWGAGTTVTVSS VL: NIVMTQSPKSVSMSVGERVTLNCKASENVGSYVAWYQQKPDRSPKLLIHGASNRYTGVPDRFTGSGSTTDFTLTISSVQAEDLADYHCGQTYNYPYTFGGGTKLEIKR next?
0.534 OD
